# protocolDescription: […] (pKa) value was evaluated
# Format: physicochemical
readoutLabel: pKa

Any idea what its pKa is? The molecule is CS(=O)(=O)O.C[C@H]1C2Cc3ccc(O)cc3[C@@]1(C)CCN2CC(F)(F)F
4.56

Same question, CCN1CC[C@]2(C)c3cc(O)ccc3CC1[C@@H]2C.CS(=O)(=O)O this time
9.42

Same question, CS(=O)(=O)O.C[C@H]1C2Cc3ccc(O)cc3[C@@]1(C)CCN2CCF this time
8.35

Same question, CCOC(=O)C1(c2ccccc2)CCN(CC(F)(F)F)CC1.Cl this time
3.13

Same question, CCOC(=O)C1(c2ccccc2)CCN(CC)CC1.Cl this time
9.03

Same question, CCOC(=O)C1(c2ccccc2)CCN(CC(F)F)CC1.Cl this time
5.23

Same question, CCOC(=O)C1(c2ccccc2)CCN(CCF)CC1.Cl this time
7.43

Same question, CS(=O)(=O)O.C[C@H]1C2Cc3ccc(O)cc3[C@@]1(C)CCN2CC(F)F this time
6.52

----------
So I've got a bunch of compounds here, and I need their IC50 values.
# testSystem: Opioid receptors; mu/kappa/delta (Homo sapiens, UniProt P41145+P41143+P35372)
# protocolDescription: Inhibition of Opioid receptors with [3H]naloxone binding in the absence of NaCl
# Assay type: protein assay, Cavia porcellus
Express the result in µM but write the number alone.

Give Opioid receptors; mu/kappa/delta (Homo sapiens, UniProt P41145+P41143+P35372) IC50 for CCOC(=O)C1(c2ccccc2)CCN(CC)CC1.Cl
5

Same question, CCN1CC[C@]2(C)c3cc(O)ccc3CC1[C@@H]2C.CS(=O)(=O)O this time
0.18

Same question, CCOC(=O)C1(c2ccccc2)CCN(CC(F)F)CC1.Cl this time
85

Same question, CCOC(=O)C1(c2ccccc2)CCN(CCF)CC1.Cl this time
20

Same question, CS(=O)(=O)O.C[C@H]1C2Cc3ccc(O)cc3[C@@]1(C)CCN2CC(F)F this time
1

Same question, CCOC(=O)C1(c2ccccc2)CCN(CC(F)(F)F)CC1.Cl this time
10

Same question, CS(=O)(=O)O.C[C@H]1C2Cc3ccc(O)cc3[C@@]1(C)CCN2CC(F)(F)F this time
1.7

Same question, CS(=O)(=O)O.C[C@H]1C2Cc3ccc(O)cc3[C@@]1(C)CCN2CCF this time
0.05

----------
# testSystem: Opioid receptors; mu/kappa/delta (Homo sapiens, UniProt P41145+P41143+P35372)
# protocolDescription: Inhibition of Opioid receptors binding by inhibiting specific [3H]naloxone binding by 50% in the presence of 100 mM NaCl
# Assay type: protein assay, Cavia porcellus
readoutLabel: log10(IC50) (log10 of the value in µM)
Remember, log10 of IC50, in µM.

Any idea what its log10(IC50) is? The compound is CS(=O)(=O)O.C[C@H]1C2Cc3ccc(O)cc3[C@@]1(C)CCN2CCF
-1.00

Same question, CS(=O)(=O)O.C[C@H]1C2Cc3ccc(O)cc3[C@@]1(C)CCN2CC(F)(F)F this time
0.40

Same question, CCOC(=O)C1(c2ccccc2)CCN(CC(F)F)CC1.Cl this time
2.04

Same question, CCN1CC[C@]2(C)c3cc(O)ccc3CC1[C@@H]2C.CS(=O)(=O)O this time
-0.70

Same question, CCOC(=O)C1(c2ccccc2)CCN(CC)CC1.Cl this time
2.08

Same question, CS(=O)(=O)O.C[C@H]1C2Cc3ccc(O)cc3[C@@]1(C)CCN2CC(F)F this time
0.06

Same question, CCOC(=O)C1(c2ccccc2)CCN(CC(F)(F)F)CC1.Cl this time
1.78

Same question, CCOC(=O)C1(c2ccccc2)CCN(CCF)CC1.Cl this time
1.81
